- MEASUREMENT_TARGET: Human recombinant MMP-14 (Homo sapiens, UniProt P50281)
- Construct: The catalytic domain enzyme was expressed in E. coli inclusion bodies, solubilized in urea; made in house
- MEASUREMENT_DESCRIPTION: In vitro MMP inhibition analysis (fluorogenic peptide substrate cleavage), Ki
- Type: biochemical
- COND: Table 1
PROPERTY_MEASURED: Ki (µM)

Previously resolved entries follow.
Query :: Endpoint output: Ki of COCCN1CCC(C(=O)NO)(S(=O)(=O)c2ccc(-c3ccc(CCC(F)(F)C(F)(F)F)cc3)cc2)CC1 [Example 46] . Value?
Result :: 1.86

Query :: Record: O=C(NO)C1(S(=O)(=O)c2ccc(-c3ccc(CCCC(F)F)cc3)cc2)CCOCC1 [Example 57]
Result :: 0.453

Query :: Follow-up entry: O=C(NO)C1(S(=O)(=O)c2ccc(-c3cnc(CCC(F)(F)F)cn3)cc2)CCOCC1 [Example 62]
Result :: 2.93

Query :: Try O=C(NO)C1(S(=O)(=O)c2ccc(-c3ccc(CCCC(F)(F)F)cc3)cc2)CCOCC1 [Example 42] next.
Result :: 0.8

Query :: Try CCN1CCC(C(=O)NO)(S(=O)(=O)c2ccc(-c3ccc(CCCC(F)(F)F)cn3)cc2)CC1 [Example 53] next.
Result :: 3.96

Query :: Here is the next compound: CCN1CCC(C(=O)NO)(S(=O)(=O)c2ccc(-c3ccc(CCC(F)(F)C(F)(F)F)cn3)cc2)CC1 [Example 52]
Result :: 2.58

Query :: Then this compound: O=C(NO)C1(S(=O)(=O)c2ccc(-c3ccc(CCC(F)(F)C(F)(F)F)cn3)cc2)CCN(C2CC2)CC1 [Example 50]
Result :: 1.19

Query :: Likewise for O=C(NO)C1(S(=O)(=O)c2ccc(-c3ccc(CCCC(F)(F)F)cn3)cc2)CCN(C2CC2)CC1 [Example 51] ?
Result :: 1.89

1: COCCC(C(=O)NO)S(=O)(=O)c1ccc(-c2ccc(CCCC(F)(F)F)cc2)cc1 (stereo not drawn) [Example 47]
2: O=C(NO)C1(S(=O)(=O)c2ccc(-c3cnc(CCC(F)(F)C(F)(F)F)cn3)cc2)CCOCC1 [Example 55]
3: COCCN1CCC(C(=O)NO)(S(=O)(=O)c2ccc(-c3ccc(OC(F)(F)C(F)F)cc3)cc2)CC1 [Example 39]
4: O=C(NO)C1(S(=O)(=O)c2ccc(-c3ccc(OC(F)(F)C(F)F)cc3)cc2)CCN(CCl)CC1 [Example 38]
Query :: Hey, quick one: sort these by Ki, low to high? Lab note: final answer is the ordered label list.
Result :: 3, 4, 2, 1

* * *

- MEASUREMENT_TARGET: Human recombinant MMP-9 (Homo sapiens)
- Construct: made in house; host or cells: MMP-9-transfected HT1080 cells (spent media)
- Sequence (P14780 107-707 limits assumed): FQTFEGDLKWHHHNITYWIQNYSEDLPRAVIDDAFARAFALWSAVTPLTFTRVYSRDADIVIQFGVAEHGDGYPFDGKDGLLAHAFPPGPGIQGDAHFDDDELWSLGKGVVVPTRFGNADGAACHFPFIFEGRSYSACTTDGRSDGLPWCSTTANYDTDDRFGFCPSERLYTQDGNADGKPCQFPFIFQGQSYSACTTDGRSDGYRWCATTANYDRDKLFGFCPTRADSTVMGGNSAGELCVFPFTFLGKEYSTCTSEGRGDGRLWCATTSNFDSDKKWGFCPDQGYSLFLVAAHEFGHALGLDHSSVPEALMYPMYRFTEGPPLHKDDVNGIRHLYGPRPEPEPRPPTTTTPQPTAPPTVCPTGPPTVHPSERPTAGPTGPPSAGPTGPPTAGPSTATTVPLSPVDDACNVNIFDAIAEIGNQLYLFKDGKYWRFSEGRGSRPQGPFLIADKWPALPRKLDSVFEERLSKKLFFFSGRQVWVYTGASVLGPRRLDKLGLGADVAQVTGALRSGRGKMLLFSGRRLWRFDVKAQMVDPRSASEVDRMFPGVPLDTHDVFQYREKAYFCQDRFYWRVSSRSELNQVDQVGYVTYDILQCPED
- MEASUREMENT_DESCRIPTION: In vitro MMP inhibition analysis (fluorogenic peptide substrate cleavage), Ki
- Format: biochemical
- COND: Table 2
pKi: −log10 of the molar value.
PROPERTY_MEASURED: pKi

See these solved cases before continuing.
Query :: Requested read-out: pKi. Entry: O=CN1CCC(C(=O)NO)(S(=O)(=O)c2ccc(-c3ccc(CCCC(F)(F)F)cn3)cc2)CC1 [Example 159]
Result :: 9.42

Query :: Proceed to CCN1CCC(C(=O)NO)(S(=O)(=O)c2ccc(-c3ccc(-c4csc(C)n4)cc3)cc2)CC1 [Example 155]
Result :: 9.36

Query :: // next record CC(C)CCNC(=O)c1cnc(-c2ccc(S(=O)(=O)C3(C(=O)NO)CCOCC3)cc2)cn1 [Example 185]
Result :: 7.87

Query :: Same read-out for CCOc1ccc(-c2ccc(S(=O)(=O)C3(C(=O)NO)CCOCC3)cc2)cc1 [Example 163] ?
Result :: 10.52

Query :: Item: O=C(NCC(F)(F)C(F)(F)F)c1cnc(-c2ccc(S(=O)(=O)C3(C(=O)NO)CCOCC3)cc2)cn1 [Example 192]
Result :: 7.39

I: O=C(c1ccc2cc(-c3ccc(S(=O)(=O)C4(C(=O)NO)CCOCC4)cc3)ccc2c1)N1CCOCC1 [Example 222]
II: CCN1CCC(C(=O)NO)(S(=O)(=O)c2ccc(-c3ccc(-c4ccncc4)cc3)cc2)CC1 [Example 136]
Query :: Could you please tell me which of these two has the higher pKi: I or II ? Give the label under which the chosen entry appears.
Result :: II

* * *

- MEASUREMENT_TARGET: Human recombinant MMP-2 (Homo sapiens)
- Construct: made in house; host or cells: MMP-2-transfected p2AHT2 cells
- Sequence (P08253 110-660): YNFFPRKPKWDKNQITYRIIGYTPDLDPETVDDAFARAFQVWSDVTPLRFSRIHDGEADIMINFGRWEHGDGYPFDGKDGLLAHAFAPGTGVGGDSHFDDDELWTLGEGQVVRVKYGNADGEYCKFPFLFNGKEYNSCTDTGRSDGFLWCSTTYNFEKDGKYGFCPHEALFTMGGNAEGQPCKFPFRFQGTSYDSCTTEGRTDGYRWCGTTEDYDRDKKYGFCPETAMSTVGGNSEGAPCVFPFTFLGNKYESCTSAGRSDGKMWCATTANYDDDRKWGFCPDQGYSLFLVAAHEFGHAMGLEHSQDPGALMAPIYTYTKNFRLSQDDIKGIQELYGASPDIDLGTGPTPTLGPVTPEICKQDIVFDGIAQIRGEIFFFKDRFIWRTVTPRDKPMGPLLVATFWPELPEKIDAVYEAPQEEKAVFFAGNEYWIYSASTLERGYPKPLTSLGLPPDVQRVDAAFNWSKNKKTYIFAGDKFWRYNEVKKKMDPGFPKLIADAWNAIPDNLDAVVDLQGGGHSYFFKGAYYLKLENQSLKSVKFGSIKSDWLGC
- MEASUREMENT_DESCRIPTION: In vitro MMP inhibition analysis (fluorogenic peptide substrate cleavage), Ki
- Assay type: biochemical
- COND: Table 1
PROPERTY_MEASURED: Ki (nM)

Query :: Query for Human recombinant MMP-2 (Homo sapiens): what Ki does the record show for COCCN1CCC(C(=O)NO)(S(=O)(=O)c2ccc(-c3ccc(CCCC(F)(F)F)cc3)cc2)CC1 ?
Result :: 0.29

Query :: Try the compound CC(F)(F)CCc1cnc(-c2ccc(S(=O)(=O)C3(C(=O)NO)CCOCC3)cc2)cn1
Result :: 0.463

A: O=C(NO)C1(S(=O)(=O)c2ccc(-c3ccc(CCC(F)(F)C(F)(F)F)cc3)cc2)CCOCC1
B: O=C(NO)C1(S(=O)(=O)c2ccc(-c3ccc(CCC(F)(F)C(F)(F)F)cc3)cc2)CCN(C2CC2)CC1
C: CC(F)(F)CCc1cnc(-c2ccc(S(=O)(=O)C3(C(=O)NO)CCN(C4CC4)CC3)cc2)cn1
D: O=C(NO)C1(S(=O)(=O)c2ccc(-c3ccc(OC(F)(F)C(F)F)cc3)cc2)CCN(C2CC2)CC1
E: CCN1CCC(C(=O)NO)(S(=O)(=O)c2ccc(-c3ccc(CCC(C)(F)F)cc3)cc2)CC1
Query :: Rank descending by Ki. In your reply, arrange the labels in the requested order.
Result :: C, B, A, E, D

* * *

- MEASUREMENT_TARGET: Human recombinant MMP-2 (Homo sapiens, UniProt P08253)
- Construct: made in house; host or cells: MMP-2-transfected p2AHT2 cells
- Sequence (P08253 110-660): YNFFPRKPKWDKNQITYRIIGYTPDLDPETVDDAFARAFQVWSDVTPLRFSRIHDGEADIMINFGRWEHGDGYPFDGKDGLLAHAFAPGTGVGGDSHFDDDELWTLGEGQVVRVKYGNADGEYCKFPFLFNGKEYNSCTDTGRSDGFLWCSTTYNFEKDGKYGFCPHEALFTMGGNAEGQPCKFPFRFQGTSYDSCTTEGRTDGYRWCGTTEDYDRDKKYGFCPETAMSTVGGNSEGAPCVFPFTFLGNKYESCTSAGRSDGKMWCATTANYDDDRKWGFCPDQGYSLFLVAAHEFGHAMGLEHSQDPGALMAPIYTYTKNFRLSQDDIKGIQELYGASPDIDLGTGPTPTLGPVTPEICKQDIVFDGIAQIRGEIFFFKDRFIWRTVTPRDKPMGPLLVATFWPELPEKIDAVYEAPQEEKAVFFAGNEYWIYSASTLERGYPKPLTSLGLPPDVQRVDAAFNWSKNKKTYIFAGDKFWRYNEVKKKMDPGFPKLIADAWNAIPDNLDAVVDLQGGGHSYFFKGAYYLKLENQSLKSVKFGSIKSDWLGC
- MEASUREMENT_DESCRIPTION: In vitro MMP inhibition analysis (fluorogenic peptide substrate cleavage), Ki
- Assay type: biochemical
- COND: Table 2
PROPERTY_MEASURED: Ki (nM)

Some solved cases for reference:
Query :: Using the record for COCCN1CCC(C(=O)NO)(S(=O)(=O)c2ccc(-c3ccc(-c4ccccc4)cc3)cc2)CC1 [Example 152] , report its Ki.
Result :: 0.1

Query :: Field entry: O=C(NO)C1(S(=O)(=O)c2ccc(-c3cnc(N4CCCC4)cn3)cc2)CCOCC1 [Example 138]
Result :: 0.218

Query :: Here is the next molecule: O=C(NCC1CCCCC1)c1cnc(-c2ccc(S(=O)(=O)C3(C(=O)NO)CCOCC3)cc2)cn1 [Example 190]
Result :: 1.7

Query :: Then what about the molecule O=C(NO)C1(S(=O)(=O)c2ccc(-c3ccc(CCCC(F)(F)F)cn3)cc2)CC=CC1 [Example 202] ?
Result :: 0.32

Query :: Try the molecule O=C(NCC(F)(F)C(F)(F)F)c1cnc(-c2ccc(S(=O)(=O)C3(C(=O)NO)CCOCC3)cc2)cn1 [Example 192]
Result :: 0.89

P: CCOCCOc1ccc(-c2ccc(S(=O)(=O)C3(C(=O)NO)CCN(CCOC)CC3)cc2)cc1 [Example 117]
Q: CC(C)c1ccc(-c2ccc(S(=O)(=O)C3(C(=O)NO)CCOCC3)cc2)cc1 [Example 97]
R: CCN1CCC(C(=O)NO)(S(=O)(=O)c2ccc(-c3noc(-c4ccncc4)n3)cc2)CC1 [Example 148]
S: CC(C)CC#Cc1cnc(-c2ccc(S(=O)(=O)C3(C(=O)NO)CCOCC3)cc2)cn1 [Example 166]
Query :: Please order the records by their reported Ki, lowest number first. Hello, could you send the labels back in the order asked? Thank you.
Result :: P, S, Q, R
(P: 0.208 nM, S: 0.4 nM, Q: 1.14 nM, R: 7.26 nM)

a: O=C(NO)C1(S(=O)(=O)c2ccc(-c3ccc(CCC(F)(F)F)cc3)cc2)CCOCC1 [Example 161]
b: CCCCNC(=O)c1cnc(-c2ccc(S(=O)(=O)C3(C(=O)NO)CCOCC3)cc2)cn1 [Example 184]
Query :: For a and b , which recorded Ki is lower? To answer, give the label that identifies your chosen option.
Result :: a
(a: 0.15 nM, b: 0.8 nM)

A: CCCCc1ccc(-c2ccc(S(=O)(=O)C3(C(=O)NO)CCN(CC)CC3)cc2)nc1 [Example 140]
B: O=C(NO)C1(S(=O)(=O)c2ccc(-c3nc4ccccc4s3)cc2)CCOCC1 [Example 195]
Query :: Could you please tell me which of these two has the higher Ki: A or B ? Use the label to indicate which entry you chose.
Result :: B
(B: 5.74 nM, A: 0.176 nM)

A: CC(C)CCc1ccc(-c2ccc(S(=O)(=O)C3(C(=O)NO)CCOCC3)cc2)nc1 [Example 99]
B: O=C(NO)C1(S(=O)(=O)c2ccc(-c3ccc(-n4cncn4)cc3)cc2)CCOCC1 [Example 126]
Query :: Quick check, higher Ki between A and B ? API: response body contains the label of the selected item.
Result :: B

These data points were gathered from patent US20060074243A1.
